Exercise: state measured mortality at 10 mg/kg for each of the compounds provided.
Test system: Mythimna separata
method notes: Stomach toxicity against fourth-instar larval stage of Mythimna separata (Oriental armyworm) in compound-pretreated corn leaves assessed as mortality at 10 mg/kg at 25+/-1 degC measured after 4 days
Assay type: functional
Give bare numbers, in %.

Take a look at these entries with their results.
mol: CC(C)OSN(C(=O)c1ccccc1)N(C(=O)c1ccccc1)C(C)(C)C
measure: mortality at 10 mg/kg
assay result: 10

mol: CCc1ccc(C(=O)N(SOC(C)(C)C)N(C(=O)c2cc(C)cc(C)c2)C(C)(C)C)cc1
measure: mortality at 10 mg/kg
assay result: 100

mol: COSN(C(=O)c1ccccc1)N(C(=O)c1ccccc1)C(C)(C)C
measure: mortality at 10 mg/kg
assay result: 0

Please give mortality at 10 mg/kg for each item listed below.
1. CCOSN(C(=O)c1ccc(CC)cc1)N(C(=O)c1cc(C)cc(C)c1)C(C)(C)C
2. CCCOSN(C(=O)c1ccccc1)N(C(=O)c1ccccc1)C(C)(C)C
3. CCCOSN(C(=O)c1ccc(CC)cc1)N(C(=O)c1cc(C)cc(C)c1)C(C)(C)C
4. CCCCOSN(C(=O)c1ccc(CC)cc1)N(C(=O)c1cc(C)cc(C)c1)C(C)(C)C

Response:
[100, 10, 100, 100]
